# Test system: HeLa
# measurement-notes: Antiviral activity against K103N/P225H mutant virus in the HeLa MAGI assay.
# Assay type: functional, cell-based, Homo sapiens
Measured pIC50 accompanies every entry in the list below.
Please express pIC50 as -log10 of the molar concentration.

Solved cases below.
Find the recorded pIC50 belonging to Cc1ccnc2c1NC(=O)c1cccnc1N2C1CC1 and report it.
5.00

Check Cc1cc(Br)cc(S(=O)(=O)c2cccc(N)c2C#N)c1 too.
4.89

Further cases:
Find the recorded pIC50 belonging to COc1cc(C(F)(F)F)cc(S(=O)(=O)c2cccc(N)c2C#N)c1 and report it.
5.26

====

# System: Human immunodeficiency virus 1
# measurement-notes: Antiviral activity against HIV-1 infected human MT-4 cells.
# Format: functional, organism-based
# applied-conditions: Human immunodeficiency virus 1, MT4
reported-metric: IC50

Record Cc1cc(Cl)cc(S(=O)(=O)c2cccc(N)c2C#N)c1 : what is its IC50 with Human immunodeficiency virus 1?
0.03 µM

Check COc1cccc(S(=O)(=O)c2cccc(N)c2C#N)c1 too.
0.9 µM

Check N#Cc1c(N)cccc1S(=O)(=O)c1ccccc1F too.
3 µM

Check CCOc1cc(C)cc(S(=O)(=O)c2cccc(N)c2C#N)c1 too.
0.06 µM

Check COc1ccccc1Sc1cccc(N)c1C#N too.
4.3 µM
